# Tested System: HRH2 (Homo sapiens, UniProt P25021)
# Sequence (P25021 whole entry): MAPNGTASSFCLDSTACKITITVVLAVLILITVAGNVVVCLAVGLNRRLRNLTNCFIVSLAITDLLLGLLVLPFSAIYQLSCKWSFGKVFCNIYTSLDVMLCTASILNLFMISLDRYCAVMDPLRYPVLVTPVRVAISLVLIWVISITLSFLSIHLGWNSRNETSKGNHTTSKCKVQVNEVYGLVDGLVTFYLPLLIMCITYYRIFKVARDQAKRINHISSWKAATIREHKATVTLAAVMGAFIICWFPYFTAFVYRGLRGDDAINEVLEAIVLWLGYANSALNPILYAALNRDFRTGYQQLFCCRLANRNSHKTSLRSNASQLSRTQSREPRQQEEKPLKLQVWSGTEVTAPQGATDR
# Experiment: SAFETYscan cAMP HRH2 Agonist
# Condition Context: read-out: RC50 (EC50)
Reported Property: EC50

Report the value of EC50 obtained on HRH2 (Homo sapiens, UniProt P25021) for `Cn1c(=O)c2c(c3cc(Nc4ccnc(F)c4Cl)ccc31)N[C@@H](C1CC1)C(F)(F)CO2` .
> 10 µM

---

# Tested System: BCL6-SMRT (NCOR2) corepressor protein-protein interaction (Homo sapiens)
# Construct: DNA encoding full length BCL6 and SMRT; expressed in transfected cells; host or cells: HEK293T
# Experiment: NanoBRET cellular assay (HEK293T)
# Assay type: cell-based
# Condition Context: Table S2
Reported Property: BCL6 NanoBRET pIC50 mean
Answer with a bare number; do not write a unit.

Return BCL6 NanoBRET pIC50 mean for the following compound: `Cn1c(=O)c2c(c3cc(Nc4nc(N5C6CCC5COC6)ncc4Cl)ccc31)N[C@@H](C1CC1)C(F)(F)CO2`
7.9696

Return BCL6 NanoBRET pIC50 mean for the following compound: `Cn1c(=O)c2c(c3cc(Nc4ccnc(Cl)c4Cl)ccc31)N[C@@H](C1CC1)C(F)(F)CO2`
7.1618

Return BCL6 NanoBRET pIC50 mean for the following compound: `Cc1nccc(Nc2ccc3c(c2)c2c(c(=O)n3C)OCC(F)(F)[C@H](C3CC3)N2)c1Cl`
6.8907
